Each entry below lists one item and its recorded abundance fitness value.
B1: Peroxisome proliferator-activated receptor delta, residues 71 to 145; numbered along this chain, Q03181 (parent)
chain: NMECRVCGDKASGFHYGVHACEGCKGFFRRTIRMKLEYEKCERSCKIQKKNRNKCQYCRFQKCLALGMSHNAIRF

- Variants of: B1
- method: abundance fitness (aPCA) (normalised: wild type 0, dead -1); higher = more abundant; growth selection in yeast, the domain comes from the species named
- condition: Homo sapiens

Recorded results for 2 variants are shown here.
NMECRVCGDKASGFHYGVHACEGCKGFFRRTIRMKLEYEKCERSCKIQKKERNKCQYCRFQKCLALGMSHNAIRF [N51E] | 0.055
NMECRVCGDKASGFHYGVHACEGCKGFFRRTIRMKLEYEKCERSCKIQKKNRNKCQYCRFQKCLALGMSHNADRF [I73D] | 0.119

The reported value for NMECRVCGDKASGFHYGVHACEGCKGFFRRTIRMKLEYEKCERSCKIQKKNRNKCQYCRFQKCLALVMSHNAIRF [G67V] in terms of abundance fitness is -0.673

Entry NMECRVCGDKASGFHYGVHACEGCKGFFRRTIRMKLEYEKCERSCKIQKKNRNKCQYCRFQKCLALGMSHNAICF [R74C] , abundance fitness reported as -0.141

Recorded result, NMECRVCGDKASGFHYGVHACEGCKGFFRRTIRMKLEYEKCERSCKIQKKNRNKCQYCRFQKCLALGMFHNAIRF [S69F] , abundance fitness: -0.268

Sure, the documented abundance fitness for NMECRVCGDKASGFHYGVHACEGCKGFFRRTIRMKLEYEKCERSCKIQKKNRNKCQYCRFQKCLATGMSHNAIRF [L66T] is 0.086

Entry NMTCRVCGDKASGFHYGVHACEGCKGFFRRTIRMKLEYEKCERSCKIQKKNRNKCQYCRFQKCLALGMSHNAIRF [E3T] — recorded abundance fitness = -0.102

Summary for this variant, TMECRVCGDKASGFHYGVHACEGCKGFFRRTIRMKLEYEKCERSCKIQKKNRNKCQYCRFQKCLALGMSHNAIRF [N1T] : abundance fitness is -0.012

abundance fitness measured on NMECRVCGDKASGFHYGVHACEGCAGFFRRTIRMKLEYEKCERSCKIQKKNRNKCQYCRFQKCLALGMSHNAIRF [K25A] = 0.122

Lookup result for NMECRVCGDKASGFHYGVHACEGCKGFFRRTLRMKLEYEKCERSCKIQKKNRNKCQYCRFQKCLALGMSHNAIRF [I32L] ; measured abundance fitness: -0.095

Recorded abundance fitness (variant NMECRVCGDKASGFHYGVHACEGCKGFPRRTIRMKLEYEKCERSCKIQKKNRNKCQYCRFQKCLALGMSHNAIRF [F28P] ): -0.406

# abundance fitness of NMECRVCGDKASGFHYGVHACEGCKGFFRRTIRMKLEYEKCERSCKCQKKNRNKCQYCRFQKCLALGMSHNAIRF [I47C] = -0.51

Item: NMECRVCGDKASGFDYGVHACEGCKGFFRRTIRMKLEYEKCERSCKIQKKNRNKCQYCRFQKCLALGMSHNAIRF [H15D] | abundance fitness: -0.027
